Value source: BindingDB's records for doi:10.1016/j.chembiol.2010.01.008

# System Tested: Ephrin type-A receptor 3 [1-975] (Homo sapiens)
# Sequence (P29320 whole entry): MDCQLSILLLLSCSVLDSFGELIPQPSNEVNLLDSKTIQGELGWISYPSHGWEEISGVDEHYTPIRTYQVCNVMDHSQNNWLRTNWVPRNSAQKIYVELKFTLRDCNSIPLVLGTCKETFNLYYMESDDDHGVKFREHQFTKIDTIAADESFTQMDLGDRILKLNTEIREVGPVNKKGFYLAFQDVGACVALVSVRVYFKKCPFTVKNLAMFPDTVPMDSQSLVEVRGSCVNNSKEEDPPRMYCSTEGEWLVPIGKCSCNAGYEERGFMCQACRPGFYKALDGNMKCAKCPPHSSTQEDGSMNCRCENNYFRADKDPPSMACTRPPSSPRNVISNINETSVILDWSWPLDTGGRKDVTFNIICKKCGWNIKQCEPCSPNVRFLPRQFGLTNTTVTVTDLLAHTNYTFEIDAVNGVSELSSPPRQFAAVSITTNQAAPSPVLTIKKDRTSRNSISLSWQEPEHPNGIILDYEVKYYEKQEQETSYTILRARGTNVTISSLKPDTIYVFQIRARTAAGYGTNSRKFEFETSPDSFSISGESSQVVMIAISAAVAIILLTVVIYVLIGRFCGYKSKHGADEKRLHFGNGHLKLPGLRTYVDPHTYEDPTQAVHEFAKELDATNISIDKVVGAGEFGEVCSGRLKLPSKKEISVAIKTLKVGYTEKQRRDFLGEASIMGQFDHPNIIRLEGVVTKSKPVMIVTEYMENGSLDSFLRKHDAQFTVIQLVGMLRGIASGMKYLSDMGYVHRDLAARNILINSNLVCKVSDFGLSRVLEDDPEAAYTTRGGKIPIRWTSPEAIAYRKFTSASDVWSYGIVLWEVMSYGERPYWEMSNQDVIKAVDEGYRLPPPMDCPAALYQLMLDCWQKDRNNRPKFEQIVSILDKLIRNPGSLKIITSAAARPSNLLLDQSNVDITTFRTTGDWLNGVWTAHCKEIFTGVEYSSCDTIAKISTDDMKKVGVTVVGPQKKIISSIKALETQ
Measure: Kd (nM)
Expressed in nM, but write only the number.

Query: Name the reported Kd value associated with the compound Cc1ccc(NC(=O)c2cccc(C(F)(F)F)c2)cc1Nc1ncccc1-c1ncnc(Nc2ccc(OCCNC(=O)CCCCNC(=O)CCC3=[N+]4B(F)n5c(C)cc(C)c5C=C4C=C3)cc2)n1 [BODIPY-labeled probe, 4a]
Reply: 27
